target: Prostaglandin E2 receptor EP3 subtype (Homo sapiens); assay: Binding affinity was determined against prostanoid EP3 receptor
Sequence (P43115 whole entry): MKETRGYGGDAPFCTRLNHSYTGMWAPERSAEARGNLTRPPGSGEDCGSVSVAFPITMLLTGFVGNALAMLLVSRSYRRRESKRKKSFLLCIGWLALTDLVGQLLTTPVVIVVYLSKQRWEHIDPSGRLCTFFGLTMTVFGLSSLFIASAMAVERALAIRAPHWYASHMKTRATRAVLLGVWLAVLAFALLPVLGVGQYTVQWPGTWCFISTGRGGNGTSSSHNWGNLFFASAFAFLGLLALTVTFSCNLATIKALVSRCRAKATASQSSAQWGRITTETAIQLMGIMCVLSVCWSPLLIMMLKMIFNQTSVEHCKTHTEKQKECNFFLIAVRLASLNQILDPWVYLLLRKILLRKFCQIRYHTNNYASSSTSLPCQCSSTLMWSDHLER
pKi: −log10 of the molar value.
observable: pKi

>>> value_measured("O=C(O)CCCCCCN1C(=O)CC[C@@H]1/C=C/C(O)Cc1cccc(C(F)(F)F)c1 (stereo not given in full)")
4.92
>>> value_measured("O=C(O)CCCCCCN1C(=O)CC[C@@H]1/C=C/C(O)C1(c2ccccc2)CC1 (stereo not given in full)")
4.70

A = O=C(O)CCCCCCN1C(=O)CC[C@@H]1CC[C@@H](O)c1cccc(C(F)(F)F)c1
B = O=C(O)CCCCCCN1C(=O)CC[C@@H]1/C=C/[C@@H](O)CC1CCC1
-- ask Hi, I'm comparing A with B and wondering which one has the bigger number for pKi. Any idea? Give the chosen item's label as your response.
-- reply A
(A: 4.92, B: 4.25)

###

Ki tested on Prostaglandin E2 receptor EP2 subtype (Homo sapiens): recorded values
Sequence (P43116 whole entry): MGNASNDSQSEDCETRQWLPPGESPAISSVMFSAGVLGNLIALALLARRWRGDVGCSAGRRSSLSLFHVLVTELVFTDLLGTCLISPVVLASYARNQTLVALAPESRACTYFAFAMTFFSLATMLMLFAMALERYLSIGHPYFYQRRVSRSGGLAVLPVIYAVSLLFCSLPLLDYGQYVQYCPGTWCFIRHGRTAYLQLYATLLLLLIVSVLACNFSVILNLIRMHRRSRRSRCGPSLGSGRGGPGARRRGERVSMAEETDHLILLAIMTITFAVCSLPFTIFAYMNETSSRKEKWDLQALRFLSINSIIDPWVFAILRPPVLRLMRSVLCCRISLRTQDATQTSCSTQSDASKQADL

Below, each entry is followed by its recorded Ki result.
>>> value_measured("O=C(O)CCCCCCN1C(=O)CC[C@@H]1/C=C/[C@@H](O)CC1CCC1")
"> 100 µM"
>>> value_measured("Cc1cc(Cl)ccc1-c1cccc(C(O)/C=C/[C@H]2CCC(=O)N2CCCCCCC(=O)O)c1 (stereo partly drawn)")
"> 100 µM"

Now examine the next entry.
-- ask Give me measured Ki, please, for this compound: O=C(O)CCCCCCN1C(=O)CC[C@@H]1/C=C/C(O)c1cccc(-c2ccccc2)c1 (stereo partly drawn)
-- reply 32 µM

###

target: Prostaglandin E2 receptor EP4 subtype (Homo sapiens); test: Agonist activity against recombinant prostanoid EP4 receptor stably transfected in CHO cells; assay type: functional, cell-based
Sequence (P35408 whole entry): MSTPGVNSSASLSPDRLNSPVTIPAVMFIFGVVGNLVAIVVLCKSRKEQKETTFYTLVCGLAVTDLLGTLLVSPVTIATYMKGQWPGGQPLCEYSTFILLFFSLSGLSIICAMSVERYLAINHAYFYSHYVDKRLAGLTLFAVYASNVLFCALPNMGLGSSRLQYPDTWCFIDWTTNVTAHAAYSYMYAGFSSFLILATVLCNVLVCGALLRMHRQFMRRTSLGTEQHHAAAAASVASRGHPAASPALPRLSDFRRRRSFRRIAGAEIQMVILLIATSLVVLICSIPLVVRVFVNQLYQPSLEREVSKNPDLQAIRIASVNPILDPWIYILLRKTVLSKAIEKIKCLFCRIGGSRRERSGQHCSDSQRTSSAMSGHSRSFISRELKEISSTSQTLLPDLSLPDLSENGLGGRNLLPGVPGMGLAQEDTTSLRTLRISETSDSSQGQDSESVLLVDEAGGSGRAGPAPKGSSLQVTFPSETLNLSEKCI
observable: EC50 (nM)

Below, each entry is followed by its recorded EC50 result.
>>> value_measured("O=C(O)CCCCCCN1C(=O)CC[C@@H]1/C=C/C(O)C1(c2ccccc2)CC1 (some centres undefined)")
180
>>> value_measured("O=C(O)CCCCCCN1C(=O)CC[C@@H]1/C=C/C(O)Cc1cccc(C(F)(F)F)c1 (some centres undefined)")
17

P = O=C(O)CCCCCCN1C(=O)CC[C@@H]1CC[C@@H](O)c1cccc(C(F)(F)F)c1
Q = O=C(O)CCCCCCN1C(=O)CC[C@@H]1/C=C/[C@@H](O)Cc1cccc(C(F)(F)F)c1
-- ask Lower value of EC50 belongs to which: P or Q ? Give the chosen item's label as your response.
-- reply Q
